# Tested on: 435261-313-R-J1-PDC tumor spheroid viability
# method: Anticancer human tumor 435261-313-R-J1-PDC patient-derived colon adenocarcinoma cell line growth inhibition [PI3K]
# condition.summary: second compound 0.0316 µM; first compound 0.1 µM; stronger effect = lower value; spheroids with HUVEC and MSC
The following compounds are listed with their measured viability, T/C values.
The answer is to be given in %; state only the numeric part.

compound	viability, T/C [%]
CNC(=O)c1ccc(N2C(=S)N(c3ccc(C#N)c(C(F)(F)F)c3)C(=O)C2(C)C)cc1F + COc1c(OCCCN2CCOCC2)ccc2c3n(c(=NC(=O)c4cnc(N)nc4)nc12)CCN3	29.1
CC(=O)c1c(C)c2cnc(Nc3ccc(N4CCNCC4)cn3)nc2n(C2CCCC2)c1=O + CC(Nc1ccc2c(c1)OCCn1cc(N3C(=O)OCC3C(F)F)nc1-2)C(N)=O	40.4
CC1(C)CCC(CN2CCN(c3ccc(C(=O)NS(=O)(=O)c4ccc(NCC5CCOCC5)c([N+](=O)[O-])c4)c(Oc4cnc5[nH]ccc5c4)c3)CC2)=C(c2ccc(Cl)cc2)C1 + COc1c(OCCCN2CCOCC2)ccc2c3n(c(=NC(=O)c4cnc(N)nc4)nc12)CCN3	25.9
CNC(=O)c1ccc(N2C(=S)N(c3ccc(C#N)c(C(F)(F)F)c3)C(=O)C2(C)C)cc1F + CC(Nc1ccc2c(c1)OCCn1cc(N3C(=O)OCC3C(F)F)nc1-2)C(N)=O	77.3
C=CC(=O)N1CCN(c2nc(=O)n(-c3c(C)ccnc3C(C)C)c3nc(-c4c(O)cccc4F)c(F)cc23)C(C)C1 (stereo unspecified) + Cc1nc(NC(=O)N2CCCC2C(N)=O)sc1-c1ccnc(C(C)(C)C(F)(F)F)c1	84

q: Could you share which viability, T/C value was measured for CC(C)NCC(C(=O)N1CCN(c2ncnc3c2C(C)CC3O)CC1)c1ccc(Cl)cc1 (stereo unspecified) + CC(Nc1ccc2c(c1)OCCn1cc(N3C(=O)OCC3C(F)F)nc1-2)C(N)=O ?
a: 56.3

* * *

# Tested on: 435261-313-R-J1-PDC tumor spheroid viability
# method: Anticancer human tumor 435261-313-R-J1-PDC cell line growth inhibition [PI3K];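 also: spheroids exposed to compounds for 7 days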
# condition.summary: second compound 0.0316 µM; first compound 0.1 µM; stronger effect = lower value; spheroids with HUVEC and MSC
# viability, T/C per record follows
Express it in %; write the number only.

Below: 5 compounds and their reported viability, T/C.
compound	viability, T/C (%)
C=CC(=O)N1CCN(c2nc(=O)n(-c3c(C)ccnc3C(C)C)c3nc(-c4c(O)cccc4F)c(F)cc23)C(C)C1 (stereo unspecified) + CC(Nc1ccc2c(c1)OCCn1cc(N3C(=O)OCC3C(F)F)nc1-2)C(N)=O	78.6
CC1(C)CCC(Nc2ncc(C(F)(F)F)c(-c3c[nH]c4c(P(C)(C)=O)c(C#N)ccc34)n2)CN1 (stereo unspecified) + CC(Nc1ncnc2nc[nH]c12)c1cc2cccc(Cl)c2c(=O)n1-c1ccccc1	52.4
C[C@@H](NC(=O)c1ncnc(N)c1Cl)c1ncc(C(=O)Nc2cc(C(F)(F)F)c(Cl)cn2)s1 + COc1c(OCCCN2CCOCC2)ccc2c3n(c(=NC(=O)c4cnc(N)nc4)nc12)CCN3	33.6
CCN1CCN(Cc2ccc(Nc3ncc(F)c(-c4cc(F)c5nc(C)n(C(C)C)c5c4)n3)nc2)CC1 + CC(Nc1ccc2c(c1)OCCn1cc(N3C(=O)OCC3C(F)F)nc1-2)C(N)=O	29.1
Cn1nccc1Nc1nccc(-c2ccn(C(CO)c3ccc(Cl)c(F)c3)c(=O)c2)n1 (stereo unspecified) + Cc1nc(NC(=O)N2CCCC2C(N)=O)sc1-c1ccnc(C(C)(C)C(F)(F)F)c1	58.2

q: Consider the compound shown here: Cn1ncnc1[C@H]1c2n[nH]c(=O)c3cc(F)cc(c23)N[C@@H]1c1ccc(F)cc1 + COc1c(OCCCN2CCOCC2)ccc2c3n(c(=NC(=O)c4cnc(N)nc4)nc12)CCN3 What is its recorded viability, T/C?
a: 22.5

q: Item C#Cc1c(F)ccc2cc(O)cc(-c3ncc4c(N5CC6CCC(C5)N6)nc(OCC56CCCN5CC(F)C6)nc4c3F)c12 (stereo unspecified) + Cc1nc(NC(=O)N2CCCC2C(N)=O)sc1-c1ccnc(C(C)(C)C(F)(F)F)c1 has what recorded viability, T/C?
a: 78

q: Item under review: CC(Cn1ccc(-c2ccc(C#N)c(Cl)c2)n1)NC(=O)c1cc(C(C)O)[nH]n1 (stereo unspecified) + CC(Nc1ccc2c(c1)OCCn1cc(N3C(=O)OCC3C(F)F)nc1-2)C(N)=O . Reported viability, T/C?
a: 78.5

q: viability, T/C lookup needed for CC1(C)CCC(Nc2ncc(C(F)(F)F)c(-c3c[nH]c4c(P(C)(C)=O)c(C#N)ccc34)n2)CN1 (stereo unspecified) + CC(Nc1ccc2c(c1)OCCn1cc(N3C(=O)OCC3C(F)F)nc1-2)C(N)=O , thanks.
a: 47.9

q: Recorded viability, T/C for C#Cc1c(F)ccc2cc(O)cc(-c3ncc4c(N5CC6CCC(C5)N6)nc(OCC56CCCN5CC(F)C6)nc4c3F)c12 (stereo unspecified) + CC(Nc1ccc2c(c1)OCCn1cc(N3C(=O)OCC3C(F)F)nc1-2)C(N)=O , please?
a: 65.7

q: Which viability, T/C reading was recorded for the compound CC(C)NCC(C(=O)N1CCN(c2ncnc3c2C(C)CC3O)CC1)c1ccc(Cl)cc1 (stereo unspecified) + COc1c(OCCCN2CCOCC2)ccc2c3n(c(=NC(=O)c4cnc(N)nc4)nc12)CCN3 ?
a: 24.9
